// reported IFNy Concentration pg/ml, Day 6, IS for each item listed
target: canine CD3 on canine T cells (canine PBMC) (canine, UniProt P27597 22-202); assay: cell-based or functional assay
Sequence (P27597 22-202 limits assumed, chain 1 of 3): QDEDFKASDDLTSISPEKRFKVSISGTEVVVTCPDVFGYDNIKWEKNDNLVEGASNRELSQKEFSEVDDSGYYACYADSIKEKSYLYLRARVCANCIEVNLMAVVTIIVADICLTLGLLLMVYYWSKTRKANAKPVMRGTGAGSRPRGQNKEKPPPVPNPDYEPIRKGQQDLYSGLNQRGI
Sequence (chain, as listed by the source limits assumed, chain 2 of 3): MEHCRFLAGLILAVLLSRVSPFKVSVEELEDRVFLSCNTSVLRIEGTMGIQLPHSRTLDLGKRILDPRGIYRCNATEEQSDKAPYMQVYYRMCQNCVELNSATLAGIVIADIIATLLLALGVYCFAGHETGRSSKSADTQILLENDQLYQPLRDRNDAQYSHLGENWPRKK
Sequence (chain, as listed by the source limits assumed, chain 3 of 3): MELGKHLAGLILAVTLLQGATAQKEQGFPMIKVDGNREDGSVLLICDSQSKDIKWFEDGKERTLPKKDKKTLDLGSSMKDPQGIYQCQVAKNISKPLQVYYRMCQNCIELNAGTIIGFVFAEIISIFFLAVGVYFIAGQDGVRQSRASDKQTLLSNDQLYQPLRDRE
value-kind: IFNy Concentration pg/ml, Day 6, IS

>  <binder>
PMX200 (monospecific anti-canine CD3, canine IgG-B effector function deficient Fc) (antibody, V domains shown) VH: ELTLQESGPGLVKPSQTLSLTCIVSGGSVTSSYYWNWIRQSPGRGLEWMGYWTGNTNYNPALQGRIFITADTAKNQFSLQLRSMTTEDTAVYYCARGGYGYHYGMDYWGHGTSVFVSS VL: SYVLTQLPSKSVALKQPAHITCGGDNIGSKRVHWYQQKLGQAPALIISFDNSRPTGIPERFSGANSGNTATLTISGALAEDEADYYCQVWDSTAKASIFGGGTHLTVL

>  <observed-measurement>
59.6 pg/mL

$$$$
>  <binder>
PMX196 (monospecific anti-canine CD3, canine IgG-B effector function deficient Fc) (antibody, V domains shown) VH: ELTLQESGPGLVKPSQTLSLTCVVSGGSVTSSYYWNWIRQRPGRGLEWMGYWTGSTIYNPAFQGRISITADTAKNQFSLQLSSMTTEDTAVYFCVRERRMAFGSWGQGTLVIVSS VL: SYVLTQLPSKSVTLKQPAHITCGGDNIGRKSVHWYQQKLGQAPVLIISFDNNRPTGIPERFSGANSGNTATLTISGALAEDEADYYCQVWDSSAKASVFGGGTHLTVL

>  <observed-measurement>
34.8 pg/mL

$$$$
>  <binder>
PMX157 (monospecific anti-canine CD3, canine IgG-B effector function deficient Fc) (antibody, V domains shown) VH: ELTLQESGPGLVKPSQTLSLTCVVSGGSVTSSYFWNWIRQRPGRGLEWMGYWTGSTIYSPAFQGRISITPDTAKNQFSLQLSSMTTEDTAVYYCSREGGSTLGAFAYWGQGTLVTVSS VL: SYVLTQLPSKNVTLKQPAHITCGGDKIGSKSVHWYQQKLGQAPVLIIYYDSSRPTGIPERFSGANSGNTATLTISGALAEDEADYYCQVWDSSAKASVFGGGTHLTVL

>  <observed-measurement>
44.4 pg/mL

$$$$
